- SYSTEM: human TRPV1 (Homo sapiens, UniProt Q8NER1)
- Sequence (Q8NER1 whole entry): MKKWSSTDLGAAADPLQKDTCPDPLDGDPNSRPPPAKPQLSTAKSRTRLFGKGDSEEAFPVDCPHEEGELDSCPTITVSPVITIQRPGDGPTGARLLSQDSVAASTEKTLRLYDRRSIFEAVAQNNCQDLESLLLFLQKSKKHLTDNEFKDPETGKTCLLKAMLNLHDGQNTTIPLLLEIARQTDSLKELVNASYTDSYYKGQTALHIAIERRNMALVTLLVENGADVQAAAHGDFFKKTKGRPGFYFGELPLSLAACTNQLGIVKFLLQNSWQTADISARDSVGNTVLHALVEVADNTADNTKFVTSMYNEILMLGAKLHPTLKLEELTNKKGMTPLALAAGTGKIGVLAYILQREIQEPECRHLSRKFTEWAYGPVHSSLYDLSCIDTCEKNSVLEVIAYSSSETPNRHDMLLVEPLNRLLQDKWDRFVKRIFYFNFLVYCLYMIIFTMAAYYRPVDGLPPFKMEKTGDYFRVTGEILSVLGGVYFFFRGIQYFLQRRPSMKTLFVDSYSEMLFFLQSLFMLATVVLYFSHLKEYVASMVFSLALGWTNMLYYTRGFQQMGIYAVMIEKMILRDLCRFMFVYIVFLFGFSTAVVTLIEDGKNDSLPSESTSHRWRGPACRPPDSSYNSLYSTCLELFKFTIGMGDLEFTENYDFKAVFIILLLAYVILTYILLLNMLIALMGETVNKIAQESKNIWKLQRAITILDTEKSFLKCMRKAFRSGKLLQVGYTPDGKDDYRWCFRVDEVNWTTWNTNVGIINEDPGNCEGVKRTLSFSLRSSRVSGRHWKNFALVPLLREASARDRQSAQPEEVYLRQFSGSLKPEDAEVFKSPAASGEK
- TEST DETAILS: FLIPR Ca2+ assay, reduction of L-Menthol activation of TRPV1
- CONDITION: antagonist 100 μM against 1 mM L-Menthol
# Lookup of reported Average Ca2+ Counts keyed by entry

### Prompt Request the reported Average Ca2+ Counts associated with CCc1nccnc1OC
### Response 1432.7 Counts

---

- SYSTEM: human TRPV1 (Homo sapiens, UniProt Q8NER1)
- TEST DETAILS: FLIPR Ca2+ assay, reduction of L-Menthol activation of TRPV1
- CONDITION: read-out: % Reduction of L-Menthol TRPV1 Activation
Where a name gives a salt, the structure may show the parent alone.
Overview of recorded inhibition at 100 µM for various compounds

Before answering, review these 3 worked examples.
COMPOUND | inhibition at 100 µM
CC(C)=CCCC(C)CCOC=O (centres unmarked) [citronellyl formate] | 41.2%
CC/C=C\CCOC(=O)CCC [cis-3-hexenyl butyrate] | 26%
CCCCCCCCCCO | 37.5%

### Prompt Would you kindly share the measured inhibition at 100 µM for CCCCOC(=O)C(C)CC (centres unmarked) [butyl 2-methylbutyrate] ?
### Response 34.9%

### Prompt Can you look up the measured inhibition at 100 µM of CC(C)CC(=O)Cc1ccccc1 for me?
### Response 32.9%

### Prompt Given COc1cccc(OC)c1O , state its recorded inhibition at 100 µM.
### Response 28.8%

### Prompt Please report the recorded inhibition at 100 µM for COC(=O)c1ccccc1NC(C)=O [methyl 2-(acetylamino)benzoate] .
### Response 37.4%

### Prompt Look up inhibition at 100 µM for this compound: C=CCCCC(=O)OCC [ethyl 5-hexenoate]
### Response 41.8%

### Prompt Please report the recorded inhibition at 100 µM for COc1cc(C)cc(OC)c1O .
### Response 32.1%

### Prompt Look up inhibition at 100 µM: CCCC(C)C(=O)OC (centres unmarked) [methyl 2-methylpentanoate]
### Response 21.2%

### Prompt Need inhibition at 100 µM, item CC1SCCS1
### Response 34.3%

### Prompt Entry CC1(C)C2CC[C@@]1(C)C(=O)C2 [(1r)-(+)-camphor] : reported inhibition at 100 µM = ?
### Response 30.5%

### Prompt I have this compound here, CCC/C=C/C(=O)OCC [ethyl trans-2-hexenoate] , and I need its recorded inhibition at 100 µM.
### Response 40.9%

### Prompt Using the record for CCCCCCCCO , report its inhibition at 100 µM.
### Response 25.2%

### Prompt Quick check: inhibition at 100 µM of O=C(O)CCC(=O)O ?
### Response 43.6%

### Prompt # get_value(readout='inhibition at 100 µM', item= O=C(O)c1ccc(O)cc1O )
### Response 31%

### Prompt For the compound O=C(Nc1ccccc1C(=O)O)c1ccccc1 , what inhibition at 100 µM is on record?
### Response 36.1%

### Prompt Looking for the measured inhibition at 100 µM of C[C@@H](CO)c1ccccc1 [(r)-(+)-2-phenyl-1-propanol] , can you help?
### Response 26.5%

### Prompt Using the record for C/C=C(\C)C(=O)OC(C)C [isopropyl tiglate] , report its inhibition at 100 µM.
### Response 29.7%

### Prompt Looking for the measured inhibition at 100 µM of CCCCCCCCCCCCCCCCOC(=O)C(C)O (centres unmarked) [hexadecyl lactate] , can you help?
### Response 43.5%
